B1: EFHC1 (parent)
chain: NIYYYLEDDSMSVIEPVVENSGIL

# Variants of: B1
# measurementDescription: protein stability index of a GFP-peptide fusion (GPS, HEK-293T) (PSI 1-6); higher = more stable;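 note: lentivirally expressed fusions sorted by FACS into six bins by GFP to DsRed ratio, PSI derived from sequencing read proportions per bin multiplied by bin number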
# conditionDescription: c terminus: a fixed tail appended
Please go through the items and note down their protein stability index.
Just the number, please.

**Q:** protein stability index for `V13I` ?
**A:** 2.15

**Q:** protein stability index for `E15L` ?
**A:** 2.31

**Q:** protein stability index for `I14S` ?
**A:** 2.43

**Q:** protein stability index for `S12Q` ?
**A:** 1.92

**Q:** protein stability index for `E19I` ?
**A:** 1.77

**Q:** protein stability index for `Y5F` ?
**A:** 1.94

**Q:** protein stability index for `E7C` ?
**A:** 2.43

**Q:** protein stability index for `D8K` ?
**A:** 1.6

**Q:** protein stability index for `P16R` ?
**A:** 2.11

**Q:** protein stability index for `V17W` ?
**A:** 1.94

**Q:** protein stability index for `D8H` ?
**A:** 1.89

**Q:** protein stability index for `S10N` ?
**A:** 3.24

**Q:** protein stability index for `E19M` ?
**A:** 1.86

**Q:** protein stability index for `D9R` ?
**A:** 2.09

**Q:** protein stability index for `I2V` ?
**A:** 2.13

**Q:** protein stability index for `D8Y` ?
**A:** 2.03

**Q:** protein stability index for `Y5W` ?
**A:** 1.75

**Q:** protein stability index for `D8T` ?
**A:** 1.83

**Q:** protein stability index for `Y4E` ?
**A:** 2.78

**Q:** protein stability index for `I14D` ?
**A:** 3.11

**Q:** protein stability index for `N1A` ?
**A:** 2.06

**Q:** protein stability index for `E7S` ?
**A:** 1.46

**Q:** protein stability index for `Y3I` ?
**A:** 2.23

**Q:** protein stability index for `D9N` ?
**A:** 1.69

**Q:** protein stability index for `E19S` ?
**A:** 1.35

**Q:** protein stability index for `V17M` ?
**A:** 2.07

**Q:** protein stability index for `E19R` ?
**A:** 1.67

**Q:** protein stability index for `V17L` ?
**A:** 1.74

**Q:** protein stability index for `E7Q` ?
**A:** 1.94

**Q:** protein stability index for `I23A` ?
**A:** 2.82

**Q:** protein stability index for `V17I` ?
**A:** 1.62

**Q:** protein stability index for `S21T` ?
**A:** 1.82

**Q:** protein stability index for `S12W` ?
**A:** 2.16

**Q:** protein stability index for `G22K` ?
**A:** 1.78

**Q:** protein stability index for `G22P` ?
**A:** 2.14

**Q:** protein stability index for `D9F` ?
**A:** 2.08

**Q:** protein stability index for `I2T` ?
**A:** 3.29

**Q:** protein stability index for `Y3R` ?
**A:** 3.04

**Q:** protein stability index for `I23Y` ?
**A:** 2.51

**Q:** protein stability index for `N20H` ?
**A:** 1.79

**Q:** protein stability index for `N20R` ?
**A:** 1.33

**Q:** protein stability index for `V18N` ?
**A:** 2.6

**Q:** protein stability index for `E19N` ?
**A:** 1.69

**Q:** protein stability index for `V18K` ?
**A:** 2.33

**Q:** protein stability index for `D9W` ?
**A:** 1.54

**Q:** protein stability index for `E15A` ?
**A:** 2.22

**Q:** protein stability index for `L24C` ?
**A:** 2.02

**Q:** protein stability index for `V18E` ?
**A:** 2.69
